target: HLA-DR DRB1*0701 (DR7) (Homo sapiens, UniProt P01903+P01911, A100R/A102G/A103Q/D57E/D86V/E43K/F76Y/K127E/L162R/M171V/P40G/Q125H/Q99D/R33Q/R42Y/R54Q/S133A/S66F/T210M/V115G/Y107V/Y59L/Y89S); experiment: biochemical; assay type: binding; settings: DRB1 *0701
List of IC50 values.
# unit: nM | format: bare number

Worked examples, 3 compounds total:
Summary for this compound, `CSCC[C@H](NC(=O)[C@H](CC(C)C)NC(=O)[C@@H]1CCCN1C(=O)[C@@H](NC(=O)[C@H](CS)NC(=O)[C@H](CC(=O)O)NC(=O)[C@@H](NC(=O)[C@H](CCCNC(=N)N)NC(=O)[C@H](CC(C)C)NC(=O)[C@@H](NC(=O)[C@H](Cc1ccc(O)cc1)NC(=O)[C@@H](N)CC(N)=O)[C@@H](C)O)C(C)C)[C@@H](C)O)C(=O)N[C@@H](Cc1ccc(O)cc1)C(=O)N[C@@H](CO)C(=O)N[C@@H](CC(C)C)C(=O)O` : IC50 is 24600

Record `CSCC[C@H](NC(=O)CNC(=O)CNC(=O)[C@H](CCCNC(=N)N)NC(=O)[C@@H](NC(=O)[C@H](CCC(N)=O)NC(=O)[C@H](C)NC(=O)[C@@H](NC(=O)[C@@H](NC(=O)[C@H](CC(C)C)NC(=O)[C@H](Cc1c[nH]cn1)NC(=O)[C@H](Cc1ccc(O)cc1)NC(=O)[C@H](CCCCN)NC(=O)[C@H](Cc1ccccc1)NC(=O)[C@@H](N)CCSC)[C@@H](C)O)C(C)C)C(C)C)C(=O)O` , field IC50: 72

Lab book: IC50 of `CC[C@H](C)[C@H](N)C(=O)N[C@@H](CCCCN)C(=O)N[C@@H](CCCCN)C(=O)N[C@@H](Cc1ccccc1)C(=O)N[C@@H](CC(C)C)C(=O)N[C@@H](Cc1ccc(O)cc1)C(=O)N[C@@H](CC(N)=O)C(=O)N[C@@H](Cc1ccccc1)C(=O)N[C@H](C(=O)N[C@@H](CCC(N)=O)C(=O)N[C@H](C(=O)N1CCC[C@H]1C(=O)N[C@@H](Cc1c[nH]cn1)C(=O)N[C@@H](CC(C)C)C(=O)N[C@@H](C)C(=O)O)[C@@H](C)CC)[C@@H](C)O` noted as 29

Next:
// recorded IC50 for `CC[C@H](C)[C@H](NC(=O)CNC(=O)[C@H](CCCNC(=N)N)NC(=O)[C@H](CCCNC(=N)N)NC(=O)[C@H](Cc1ccc(O)cc1)NC(=O)[C@H](C)NC(=O)[C@H](Cc1ccc(O)cc1)NC(=O)[C@@H](N)CCC(=O)O)C(=O)N[C@@H](C)C(=O)N[C@@H](CCC(=O)O)C(=O)N[C@@H](C)C(=O)N[C@H](C(=O)NCC(=O)N[C@@H](CC(C)C)C(=O)N1CCC[C@H]1C(=O)O)C(C)C` : 70

Per the record, `CC[C@H](C)[C@H](NC(=O)[C@@H](N)CCC(N)=O)C(=O)N[C@@H](Cc1ccc(O)cc1)C(=O)N[C@H](C(=O)N[C@@H](C)C(=O)N[C@@H](C)C(=O)N[C@@H](Cc1ccccc1)C(=O)N[C@H](C(=O)N[C@H](C(=O)N[C@@H](CCC(N)=O)C(=O)N[C@@H](C)C(=O)N[C@@H](C)C(=O)N[C@@H](C)C(=O)N[C@@H](CCC(=O)O)C(=O)N[C@H](C(=O)O)[C@@H](C)O)C(C)C)[C@@H](C)O)C(C)C` has IC50 of 324

response.value for `CSCC[C@H](NC(=O)[C@H](CC(C)C)NC(=O)[C@@H]1CCCN1C(=O)[C@@H](NC(=O)[C@@H](N)CS)[C@@H](C)O)C(=O)N[C@@H](Cc1ccc(O)cc1)C(=O)N[C@@H](CO)C(=O)N[C@@H](CC(C)C)C(=O)N[C@H](C(=O)N[C@@H](Cc1c[nH]cn1)C(=O)N[C@@H](CC(N)=O)C(=O)N[C@@H](CC(C)C)C(=O)N[C@H](C(=O)N[C@@H](CCCCN)C(=O)N[C@@H](CCC(=O)O)C(=O)O)[C@@H](C)O)C(C)C` (field: IC50) = 140

Value of IC50 reported for the compound `CC(C)C[C@H](NC(=O)[C@H](CCC(N)=O)NC(=O)[C@H](CC(=O)O)NC(=O)[C@H](CCC(=O)O)NC(=O)[C@H](CO)NC(=O)[C@H](CC(C)C)NC(=O)[C@@H]1CCCN1C(=O)[C@@H](NC(=O)[C@@H](N)[C@@H](C)O)C(C)C)C(=O)N[C@@H](CC(C)C)C(=O)N[C@@H](Cc1ccc(O)cc1)C(=O)N[C@@H](CC(C)C)C(=O)N1CCC[C@H]1C(=O)N[C@@H](Cc1ccccc1)C(=O)N[C@@H](CCCNC(=N)N)C(=O)O` is 11300

Data point: `CC[C@H](C)[C@H](NC(=O)[C@@H](N)Cc1c[nH]c2ccccc12)C(=O)N[C@H](C(=O)N[C@@H](CCC(N)=O)C(=O)N[C@@H](CS)C(=O)N[C@@H](Cc1ccccc1)C(=O)N[C@@H](CC(C)C)C(=O)N1CCC[C@H]1C(=O)N[C@H](C(=O)N[C@@H](Cc1ccccc1)C(=O)N[C@@H](CC(C)C)C(=O)N[C@@H](C)C(=O)N[C@@H](CCC(N)=O)C(=O)N1CCC[C@H]1C(=O)N1CCC[C@H]1C(=O)N[C@@H](CO)C(=O)NCC(=O)N[C@@H](CCC(N)=O)C(=O)N[C@@H](CCCNC(=N)N)C(=O)N[C@@H](CCCNC(=N)N)C(=O)O)C(C)C)[C@@H](C)O` ; IC50 = 74200
